Assignment: determine reported intensity of coloration (enzyme activity mark) for the given molecules.
# System: S. saprophyticus 009
# ASSAY: Experiment 4: naphthol derivative substrates in API galleries, liquid medium
# Type: cell-based, Staphylococcus saprophyticus
# Set-up: key: the mark 0 corresponds to a negative reaction; marks 1, 2, 3 and 4 indicate intermediate levels of coloration and therefore of enzyme activity; marks 1, 2, 3 and 4 indicate intermediate levels of coloration and therefore of enzyme activity; marks 1, 2, 3 and 4 indicate intermediate levels of coloration and therefore of enzyme activity; marks 1, 2, 3 and 4 indicate intermediate levels of coloration and therefore of enzyme activity; the mark 5 to a reaction of maximum intensity
# ASSAY CONTEXT: 4 hours of incubation at 37° C.
Numbers only.

Sample answers from the record:
OC[C@H]1O[C@H](Oc2ccc3ccccc3c2)[C@H](O)[C@@H](O)[C@@H]1O [No 6, 2-naphthyl-α-D-glucopyranoside]
1
OC[C@H]1O[C@@H](Oc2ccc3ccccc3c2)[C@H](O)[C@@H](O)[C@H]1O [No 4, 2-naphthyl-β-D-galactopyranoside]
3
OC[C@H]1O[C@@H](Oc2ccc3cc(Br)ccc3c2)[C@H](O)[C@@H](O)[C@@H]1O [No 7, 6-bromo-2-naphtyl-β-D-glucopyranoside]
0
O=P(O)(O)Oc1ccc2ccccc2c1 [No 2, 2-naphthyl-phosphate]
1

Kindly consider the entry below.
Note to self: intensity of coloration (enzyme activity mark) recorded for OC[C@H]1O[C@H](Oc2ccc3cc(Br)ccc3c2)[C@H](O)[C@@H](O)[C@H]1O [No 3, 6-bromo-2-naphthyl-α-D-galactopyranoside] was 0

* * *

# Test system: S. intermedius 075
# ASSAY: Experiment 4: naphthol derivative substrates in API galleries, liquid medium
# Type: cell-based, Staphylococcus intermedius
# Set-up: key: the mark 0 corresponds to a negative reaction; marks 1, 2, 3 and 4 indicate intermediate levels of coloration and therefore of enzyme activity; marks 1, 2, 3 and 4 indicate intermediate levels of coloration and therefore of enzyme activity; marks 1, 2, 3 and 4 indicate intermediate levels of coloration and therefore of enzyme activity; marks 1, 2, 3 and 4 indicate intermediate levels of coloration and therefore of enzyme activity; the mark 5 to a reaction of maximum intensity
# ASSAY CONTEXT: 4 hours of incubation at 37° C.
Assignment: determine reported intensity of coloration (enzyme activity mark) for the given molecules.

Sample answers from the record:
OC[C@H]1O[C@@H](Oc2ccc3ccccc3c2)[C@H](O)[C@@H](O)[C@H]1O [No 4, 2-naphthyl-β-D-galactopyranoside]
3
OC[C@H]1O[C@@H](Oc2ccc3cc(Br)ccc3c2)[C@H](O)[C@@H](O)[C@@H]1O [No 7, 6-bromo-2-naphtyl-β-D-glucopyranoside]
0

For every item below, please supply its intensity of coloration (enzyme activity mark).
1. OC[C@H]1O[C@H](Oc2ccc3ccccc3c2)[C@H](O)[C@@H](O)[C@@H]1O [No 6, 2-naphthyl-α-D-glucopyranoside]
2. O=P(O)(O)Oc1ccc2ccccc2c1 [No 2, 2-naphthyl-phosphate]
3. OC[C@H]1O[C@H](Oc2ccc3cc(Br)ccc3c2)[C@H](O)[C@@H](O)[C@H]1O [No 3, 6-bromo-2-naphthyl-α-D-galactopyranoside]

### Response
[1, 4, 0]

* * *

Assignment: determine reported hours of incubation required to obtain the maximum level of fluorescence for the given compounds.
# System: S. xylosus 008
# ASSAY: Experiment 5: fluorescent substrates in liquid medium, VITEK 2 reading
# Format: cell-based, Staphylococcus xylosus
# ASSAY CONTEXT: substrate 200 mg/l, read over 19 hours
Numbers only, in h.

Sample answers from the record:
Cc1cc(=O)oc2cc(O[C@@H]3O[C@H](C(=O)O)[C@@H](O)[C@H](O)[C@H]3O)ccc12 [4-MU-β-GUR, 4-methylumbelliferyl-β-D-glucuronide]
5
Cc1cc(=O)oc2cc(O[C@@H]3O[C@H](CO)[C@@H](O)[C@H](O)[C@H]3O)ccc12 [4-MU-β-GLU, 4-methylumbelliferyl-β-D-glucoside]
9
Cc1cc(=O)oc2cc(O[C@H]3O[C@H](CO)[C@@H](O)[C@H](O)[C@H]3O)ccc12 [4-MU-α-GLU, 4-methylumbelliferyl-α-D-glucoside]
11

Kindly consider the entry below.
Case Cc1cc(=O)oc2cc(O[C@@H]3O[C@H](CO)[C@H](O)[C@H](O)[C@H]3O)ccc12 [4-MU-β-GAL, 4-methylumbelliferyl-β-D-galactoside] , S. xylosus 008, hours of incubation required to obtain the maximum level of fluorescence recorded as 5
